protocolText: ATG_CMV_CIS: Attagene CIS-FACTORIAL HepG2 Assay for human CMV (Internal Marker) (AID 2282928);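 also: endpoint acts as a background internal control marker rather than a target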
appliedConditions: HepG2 CMV promoter reporter, transcription factor profiling; actives raise or lower the signal
Active and inactive are the calls of the source. The calls were made as follows: active = hit-call score of the fitted dose curve at least 0.9, where 1 is the maximum; inactive = score below 0.9.
# valid calls are t for active, f for inactive; nothing else

Field: example entries. Status: answers known.
Cc1cc(=O)[nH]c(=S)[nH]1 ... f
CCCCCCCCCCCCCCCC ... f
Clc1cc(Cl)c(Cl)cc1Cl ... f
Oc1ccc2c(c1)OC[C@@H](N1CCC(O)(c3ccc(F)cc3)CC1)[C@H]2O ... f
CN[C@H]1CC[C@@H](c2ccc(Cl)c(Cl)c2)c2ccc(S(N)(=O)=O)cc21 ... f

*Q* Check the results log: what was the call for Cc1cc(NC(=O)C(=O)O)cc(C)c1Oc1ccc(O)c2c1CCC2 ?
*A* f

====

protocolText: ATG_TA_CIS: Attagene CIS-FACTORIAL HepG2 Assay for human TA Basal Promoter (AID 2282964)
appliedConditions: HepG2 Attagene CIS-factorial TA basal promoter reporter; actives raise or lower the signal
Activity calls are given as the source filed them. The calls were made as follows: active = hit-call score of the fitted dose curve at least 0.9, where 1 is the maximum; inactive = score below 0.9.
# valid calls are active, inactive; nothing else

Field: example entries. Status: answers known.
COc1cc(/C=C/C(=O)CC(=O)/C=C/c2ccc(O)c(OC)c2)ccc1O ... inactive
CCCCCCCCCCCCCCCCCC(=O)O ... inactive
CCCCCCCC=O ... inactive
C=CCc1ccc(O)c(OC)c1 ... inactive
FC(F)(F)C(F)(F)C(F)(F)C(F)(F)C(F)(F)C(F)(F)CCI ... inactive

*Q* Check the results log: what was the call for CCCCC(CC)COC(=O)CC(C(=O)OCC(CC)CCCC)S(=O)(=O)O (configuration not stated) ?
*A* inactive

====

Read-out: NAD(P)H dehydrogenase [quinone] 1 (NQO1), NQO1 (gene 1728)
protocolText: LTEA_HepaRG_NQO1: Life Technologies and Expression Analysis (LTEA) Assay for NAD(P)H dehydrogenase [quinone] 1 (NQO1) using HepaRG (AID 2283526)
appliedConditions: mRNA level, 48 h; actives raise or lower the signal
Active and inactive are the calls of the source. The calls were made as follows: active = hit-call score of the fitted dose curve at least 0.9, where 1 is the maximum; inactive = score below 0.9.
measuredAttribute: outcome

CC(=O)OC/C=C(\C)CCC=C(C)C ... inactive
C[C@]12C=CC(=O)C=C1CC[C@@H]1[C@@H]2C(=O)C[C@@]2(C)[C@H]1CC[C@]2(O)C(=O)CO ... inactive
CN1CCN(Cc2cc(-c3ccc4[nH]c(=O)oc4c3)co2)[C@@H](c2ccc(F)cc2)C1 ... inactive
CCCCc1ccc2c(n1)[C@@H](c1ccc(OC)cc1C[C@H](C)C(=O)O)[C@H](C(=O)O)[C@H]2c1ccc2c(c1)OCO2 ... inactive
c1cc(-c2ccncc2)ccn1 ... inactive

*Q* Recorded outcome for CC1(C)NC(=O)NC1=O , please?
*A* inactive

*Q* Let us now turn to COC(=O)c1ccc(O)cc1
*A* inactive

====

Read-out: C-C motif chemokine 2 (Homo sapiens)
protocolText: BSK_KF3CT_MCP1: BioMAP Diversity Plus: KF3CT Assay for Monocyte Chemoattractant Protein 1 (MCP1/CCL2) Biomarker Activity (AID 2283073)
appliedConditions: primary human keratinocytes with fibroblasts; actives raise or lower the signal
Calls of active or inactive are those of the source. Rule for the calls: active = hit-call score of the fitted dose curve at least 0.9, where 1 is the maximum; inactive = score below 0.9.
measuredAttribute: outcome

Recorded outcome, per entry:
Cc1ccc2ncccc2c1 ... inactive
C=CCc1ccc(O)c(OC)c1 ... inactive
Nc1nc(N)c2nc(CNc3ccc(C(=O)N[C@@H](CCC(=O)O)C(=O)O)cc3)cnc2n1 ... inactive
CCCCCC(=O)O ... inactive
CC1=C(/C=C/C(C)=C/C=C/C(C)=C/CO)C(C)(C)CCC1 ... inactive

*Q* Recorded outcome for CCCc1cc(=O)[nH]c(=S)[nH]1 , please?
*A* inactive

*Q* Let us now turn to C=CCOC(=O)c1ccccc1C(=O)OCC=C
*A* inactive
